Values compiled from PubChem BioAssay (NCI).

# Test system: M14 melanoma
# protocol: NCI-60 one-dose screen, 48 h (100 = growth as untreated, 0 = no growth, -100 = all killed)
# recorded.conditions: 10 µM unless noted
Compounds without any hit were thinned out: in the full panel of roughly 83,000, 20% have a hit.
Binary call on growth with cut-off 30%: strictly below means 1, and equality or higher means -1.

Cc1ccc(Cc2cnc(NC(=O)/C(C#N)=C/c3ccc(-c4ccc(Cl)cc4)o3)s2)cc1: -1

Query block: Determine whether this compound shows growth lower than 30% (ties excluded): `CC(C)N=C(N/C(N)=N/c1nc2ccccc2s1)NC(C)C`
Result block: -1

Query block: Determine whether this compound shows growth lower than 30% (ties excluded): `CCc1ccc(NC(=O)N[C@@H](Cc2cccc(C)c2)C(=O)N[C@@H]2C(=O)N3CCC[C@H]3C(=O)N3CCCC[C@H]3C(=O)N[C@@H](CO)C(=O)N3C[C@H](C)C[C@H]3C(=O)O[C@H]2C)c(F)c1`
Result block: 1

Query block: Determine whether this compound shows growth lower than 30% (ties excluded): `COc1ccc(/C=N\NC(=O)c2ccc3nc(-c4ccc(Br)cc4)[nH]c3c2)cc1`
Result block: 1

Query block: Determine whether this compound shows growth lower than 30% (ties excluded): `CN1CCN(c2nc(-c3cnc4ccccc4n3)cc3ccccc23)CC1`
Result block: 1

Query block: Determine whether this compound shows growth lower than 30% (ties excluded): `C#C[C@]1(O)CC[C@H]2[C@@H]3CC=C4c5sc(C6CC6)nc5CC[C@]4(C)[C@H]3CC[C@@]21C`
Result block: -1

Query block: Determine whether this compound shows growth lower than 30% (ties excluded): O=C(COc1ccc(C2SCC(=O)N2c2ccccc2)cc1)c1ccccc1 (stereo unspecified)
Result block: -1

Query block: Determine whether this compound shows growth lower than 30% (ties excluded): `O=C(O)CNS(=O)(=O)c1ccc(Oc2ccc(S(=O)(=O)NCC(=O)O)cc2)cc1`
Result block: -1

Query block: Determine whether this compound shows growth lower than 30% (ties excluded): `CN1CCN(c2ccc3c(C(N)=O)c(NC(=O)c4ccc(C(C)(C)C)cc4)sc3c2)CC1`
Result block: -1

Query block: Determine whether this compound shows growth lower than 30% (ties excluded): CC1OC(O[C@@H]2[C@H](O)C(CO)OC(O[C@H]3COC(O[C@H]4CC[C@]5(C)[C@H]6CC[C@]78OC[C@@]9(CCC(C)(C)C[C@H]97)[C@H](O)C[C@@]8(C)[C@]6(C)CC[C@H]5C4(C)C)[C@@H](OC4OC(CO)[C@@H](O)[C@@H](O)[C@@H]4O)[C@@H]3O)[C@H]2OC2OC[C@@H](O)[C@@H](O)[C@@H]2O)[C@@H](O)[C@@H](O)[C@H]1O (stereo partly specified)
Result block: 1

Query block: Determine whether this compound shows growth lower than 30% (ties excluded): `O=c1c2c(O)cccc2oc2c3c(cc(O)c12)O[C@H]1OC=C[C@@H]31`
Result block: -1

Query block: Determine whether this compound shows growth lower than 30% (ties excluded): CCN1C(=O)N(CC)C2SC(N/N=C/c3cccs3)=NC21 (stereo unspecified)
Result block: 1

Query block: Determine whether this compound shows growth lower than 30% (ties excluded): `CC(C)Sc1nc(NC2CC2)c(C#N)c(-c2ccccc2)n1`
Result block: -1

Query block: Determine whether this compound shows growth lower than 30% (ties excluded): `COc1ccc(/C=N/Nc2nc(Nc3ccccc3)nc(Nc3ccc(S(N)(=O)=O)cc3)n2)cc1`
Result block: -1

Query block: Determine whether this compound shows growth lower than 30% (ties excluded): `CN1CCN(Cc2ccc(NC(=O)c3cncc(C#Cc4cnc5ccc(O[C@H]6CCOC6)nn45)c3)cc2C(F)(F)F)CC1`
Result block: 1
